Tested on: A549
ASSAY_OVERVIEW: Photodynamic cytotoxicity against human A549 cells assessed as reduction in cell viability preincubated for 24 hrs followed by compound washout and subsequent 650 nanometer laser light irradiation at 2 J/cm2 measured by MTT assay
Format: functional, cell-based
STUDY_CONDITIONS: A549, light or radiation study
Some molecules, each annotated with its measured IC50.

{"columns": ["COMPOUND_STRING", "IC50, nM"],
 "data": [
  ["C=Cc1c(C)c2cc3nc(c(CC(=O)OC)c4[nH]c(cc5nc(cc1[nH]2)C(C)=C5CC)c(C)c4C(=O)NCCN/C(=N\\C(=O)OC(C)(C)C)NC(=O)OC(C)(C)C)[C@@H](CCC(=O)OC)[C@@H]3C", 197],
  ["Oc1cccc(-c2c3nc(c(-c4cccc(O)c4)c4ccc([nH]4)c(-c4cccc(O)c4)c4nc(c(-c5cccc(O)c5)c5ccc2[nH]5)CC4)C=C3)c1", 702],
  ["C=Cc1c(C)c2cc3nc(c(CC(=O)OC)c4[nH]c(cc5nc(cc1[nH]2)C(C)=C5CC)c(C)c4C(=O)NCCNC(=N)N)[C@@H](CCC(=O)OC)[C@@H]3C", 545]
]}

Data credit: ChEMBL document CHEMBL4396894
